Target: T1, Human LRP6-Fc (R&D Systems), recombinant human LRP6 containing the complete extracellular domain (human, UniProt O75581 20-1370)
T1 construct: Bought protein; also called hLRP6; Fc-antigen; not shown: Fc part of the bought fusion protein
T1 sequence: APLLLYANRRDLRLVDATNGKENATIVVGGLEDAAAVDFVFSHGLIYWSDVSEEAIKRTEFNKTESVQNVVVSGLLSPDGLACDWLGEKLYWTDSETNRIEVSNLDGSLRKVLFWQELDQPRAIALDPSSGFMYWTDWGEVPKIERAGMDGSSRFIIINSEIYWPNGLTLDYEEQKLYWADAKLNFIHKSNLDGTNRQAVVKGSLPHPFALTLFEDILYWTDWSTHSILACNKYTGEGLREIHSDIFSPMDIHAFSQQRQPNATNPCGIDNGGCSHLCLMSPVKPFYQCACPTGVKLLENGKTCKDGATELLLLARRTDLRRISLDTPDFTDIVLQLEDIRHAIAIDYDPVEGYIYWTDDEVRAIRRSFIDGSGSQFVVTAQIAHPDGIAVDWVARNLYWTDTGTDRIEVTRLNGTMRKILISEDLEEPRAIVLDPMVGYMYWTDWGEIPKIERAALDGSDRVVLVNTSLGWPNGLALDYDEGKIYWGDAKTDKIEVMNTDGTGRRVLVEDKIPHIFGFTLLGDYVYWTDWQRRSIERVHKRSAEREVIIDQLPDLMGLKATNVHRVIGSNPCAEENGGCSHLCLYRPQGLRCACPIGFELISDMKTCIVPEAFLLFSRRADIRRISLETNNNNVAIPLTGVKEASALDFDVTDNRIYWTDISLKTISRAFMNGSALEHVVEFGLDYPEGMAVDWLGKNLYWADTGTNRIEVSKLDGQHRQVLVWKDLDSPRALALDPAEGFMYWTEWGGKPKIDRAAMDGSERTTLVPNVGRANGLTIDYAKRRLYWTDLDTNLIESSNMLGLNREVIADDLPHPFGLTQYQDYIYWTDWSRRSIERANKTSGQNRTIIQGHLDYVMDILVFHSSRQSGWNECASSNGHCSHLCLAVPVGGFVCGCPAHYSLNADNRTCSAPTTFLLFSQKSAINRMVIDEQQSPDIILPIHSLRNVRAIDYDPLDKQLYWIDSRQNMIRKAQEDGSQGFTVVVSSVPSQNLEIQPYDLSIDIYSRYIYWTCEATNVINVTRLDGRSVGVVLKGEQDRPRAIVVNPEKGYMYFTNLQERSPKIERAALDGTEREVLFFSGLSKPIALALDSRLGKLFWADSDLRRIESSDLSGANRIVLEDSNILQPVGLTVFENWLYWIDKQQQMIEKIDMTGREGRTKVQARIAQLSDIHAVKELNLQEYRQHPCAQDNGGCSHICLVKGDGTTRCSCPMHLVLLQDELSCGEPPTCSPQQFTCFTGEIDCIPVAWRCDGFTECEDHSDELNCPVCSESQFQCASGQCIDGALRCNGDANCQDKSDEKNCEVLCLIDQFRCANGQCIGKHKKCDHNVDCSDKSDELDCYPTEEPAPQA
Experiment: SPR (BIAcore), mAb captured on anti-mouse chip, Fc-antigen injected, 1:1 model
pKd: −log10 of the molar value.
Mark Not satisfied for pKd values under 8, and Satisfied for everything at or above.

- binder: "anti-LRP6 monoclonal antibody 856.6 (antibody, V domains shown, Murine hybridoma mAb, protein G purified; also called VH11/VL11) VH: QVQLQQSGPELVKPGASVRISCKASGYTFTTYYIHWLKQRPGQGLEWIGWIFPGNVNTKYNAKFKGKATLTADKSSSTAYMQLSSLTSEDSAVYFCAREGLQYYFDYWGQGTTLTVSS VL: QIVLTQSPAIMSASPGEKVTISCSANSSVRFMFWYQQKPGSSPKPLIYRTSNLASGVPARFSGSGSGTSYSLTISSMEAEDAATYYCQQYHSYPWTFGGGTKLEI"
  discrete label: "Satisfied"
- binder: "anti-LRP6 monoclonal antibody 1213.2 (antibody, V domains shown, Murine hybridoma mAb, protein G purified; also called VH17/VL17) VH: DVNLVESGGGLVKLGGSLKLSCAASGFTFSSFYMSWVRQTPEKRLDLVATINTNGGSTYYSDTVKGRFTISRDNAKNTLYLQMNSLKSEDTALFYCVRQPYYGGTMDYWGQGTSVTVSS VL: DIVLTQSPATLSVTPGDRVSLSCRASQSINNNLHWYQQKSHESPRLLIKYASQSISGIPSRFSGSGSGTDFTLSINSVETEDFGMYFCQQTNNWPLTFGAGTKLEL"
  discrete label: "Satisfied"
- binder: "anti-LRP6 monoclonal antibody 923.3 (antibody, V domains shown, Murine hybridoma mAb, protein G purified; also called VH12/VL12) VH: DVKLVESGGGLVKVGGSLKLSCAASGFTFSSYYMSWVRQTPEKRLELVAAININGGSTYYPDTVKGRFTISRDNAKNTLYLQMSSLKSEDTAFYYCASELAGYGTPFAYWGQGTLVTVSA VL: DIVLTQSPATLSVTPGDSVSLSCRASQSISNNLHWYQQKSHESPRLLIKYASQSISGIPSRFSGSGSGTDFTLSINSVETEDFGMYFCQQSNNWPLTFGAGTKLEL"
  discrete label: "Satisfied"
- binder: "anti-LRP6 monoclonal antibody 1293.11 (antibody, V domains shown, Murine hybridoma mAb, protein G purified; also called VH20/VL20) VH: QVQLQQSGPELVKPGASVRISCKASGYTFTTYYIHWLKQRPGQGLEWIGWIFPGNVNTKYNAKFKGKATLTADKSSSTAYMQLSSLTSEDSAVYFCAREELQYYFDYWGQGSALTVSS VL: QIVLTQSPAIMSASPGEKVTISCSANSSVRFMFWYQQKPGSSPKPLIYRTSNLASGVPARFSGSGSGTSYSLTISSMEAEDAATYYCQQYHSYPWTFGGGTKLEI"
  discrete label: "Not satisfied"
- binder: "anti-LRP6 monoclonal antibody 413.1 (antibody, V domains shown, Murine hybridoma mAb, protein G purified; also called VH5/VL5) VH: EIQLQQSGPELVKPGASVKVSCKASGYAFTSYNMYWVKQSHGKGLEWIGYIDPYNGGTDSNQNFKGKATLTVDKSSSTAFMHLNSLTSEDSAVYYCARGGMGLRRDHFDYWGQGTSLTVSS VL: QIVLTQSPAIMSASPGEKVTISCSANSSVRYMFWYQQKPGSFPKPWTYRTSNLASGVPARFSGSGSGTSYSLTISSMEAEDVATYYCQQYHSYPWTFGGGTKLEI"
  discrete label: "Not satisfied"
- binder: "anti-LRP6 monoclonal antibody 1253.12 (antibody, V domains shown, Murine hybridoma mAb, protein G purified; also called VH18/VL18) VH: QVQLQQSGPELVMPGASVRISCKASGYTFTNYYLHWVKQRPGQGLEWIGWIYPGNVNTKYNEKFKGKASLTADKSSSTAYMQLSSLTSEDSAVYFCAREGLQYYFDYWAQGTTLTVSS VL: QIVLTQSPAIMSASPGEKVTISCSANSSVRYMFWYQQKPGSFPKPWIYRTSNLASGVPARFSGSGSGTSYSLTISSMEAEDVATYYCQQYHSYPWTFGGGTKLEI"
  discrete label: "Satisfied"
- binder: "anti-LRP6 monoclonal antibody 421.1 (antibody, V domains shown, Murine hybridoma mAb, protein G purified; also called VH6/VL6) VH: QVQLQQSGPELVKPGASVRISCKASGYTFTTYYIHWLKQRPGQGLEWIGWIFPGNVNTKYNAKFKGKATLTADKSSSTAYMQLSSLTSEDSAVYFCAREELQYYFDYWGQGSTLTVSS VL: QIVLTQSPAIMSASPGEKVTISCSANSSVRFMFWYQQKPGSSPKPLIYRTSNLASGVPARFSGCGSGTSYSLTISSMEAEDAATYYCQQYHSYPWTFGGGTKLEI"
  discrete label: "Satisfied"
